- Tested on: Carbapenem-resistant P. aeruginosa (CRPA), clinical isolate
- Type: cell-based, Pseudomonas aeruginosa
- CONDITION: 1 h
- Description: Acinetobacter baumannii (ATCC 19606), B. subtilis (ATCC 6633), E. aerogenes (ATCC 13048), E. coli (ATCC 25922), E. faecalis (ATCC 19433), E. faecium (ATCC 19434), K. pneumoniae (ATCC 13883), P. aeruginosa (ATCC 27853), S. aureus (ATCC 29213), S. sindenensis (ATCC 23963), and MRSA (ATCC 33591) were purchased from the American Type Culture Collection (ATCC; Gaithersburg, MD, USA). […] The minimum bactericidal concentration (MBC) was determined as previously described with minor modifications. […]
Residues, ends and D or L forms follow the SMILES beside them.
Measured MBC Value, CRPA, listed per entry for reference.
READOUT NAME: MBC Value, CRPA (µg/mL)

{"columns": ["COMPOUND", "OBSERVED RESULT"],
 "data": [
  ["CC[C@H](C)[C@H](NC(=O)CNC(=O)[C@H](CCSC)NC(=O)CNC(=O)[C@@H](NC(=O)[C@H](C)NC(=O)[C@H](CCSC)NC(=O)[C@H](Cc1ccccc1)NC(=O)[C@@H](NC(=O)[C@H](Cc1ccccc1)NC(=O)[C@H](CCCCN)NC(=O)CNC(=O)CNC(=O)[C@H](CCCCN)NC(=O)[C@H](CCCCN)NC(=O)[C@H](CCSC)NC(=O)[C@H](CCSC)NC(=O)[C@H](CCCCN)NC(=O)[C@@H](N)CCCCN)[C@@H](C)O)[C@@H](C)CC)C(=O)N[C@@H](CCCNC(=N)N)C(=O)O [d68G] (H-KKMMKKGGKFTFMAIGMGIR-OH)", 8],
  ["CC[C@H](C)[C@H](NC(=O)CNC(=O)[C@H](CCSC)NC(=O)CNC(=O)[C@@H](NC(=O)[C@H](C)NC(=O)[C@H](CCSC)NC(=O)[C@H](Cc1ccccc1)NC(=O)[C@@H](NC(=O)CNC(=O)[C@H](Cc1ccccc1)NC(=O)[C@@H](NC(=O)CNC(=O)CNC(=O)[C@H](CO)NC(=O)[C@H](CCCCN)NC(=O)[C@H](CCSC)NC(=O)[C@H](CCSC)NC(=O)[C@H](CCCCN)NC(=O)[C@@H](N)CCCCN)[C@@H](C)O)[C@@H](C)O)[C@@H](C)CC)C(=O)N[C@@H](CCCNC(=N)N)C(=O)O [K2] (H-KKMMKSGGTFGTFMAIGMGIR-OH)", 16],
  ["CC[C@H](C)[C@H](NC(=O)CNC(=O)[C@H](CCSC)NC(=O)CNC(=O)[C@@H](NC(=O)[C@H](CCSC)NC(=O)[C@H](Cc1ccccc1)NC(=O)[C@@H](NC(=O)CNC(=O)[C@H](Cc1ccccc1)NC(=O)[C@H](CCCCN)NC(=O)CNC(=O)CNC(=O)[C@H](CCCCN)NC(=O)[C@H](CCCCN)NC(=O)[C@H](CCSC)NC(=O)[C@H](CCSC)NC(=O)[C@H](CCCCN)NC(=O)[C@@H](N)CCCCN)[C@@H](C)O)[C@@H](C)CC)C(=O)N[C@@H](CCCNC(=N)N)C(=O)O [d72A] (H-KKMMKKGGKFGTFMIGMGIR-OH)", 4],
  ["CC[C@H](C)[C@H](NC(=O)CNC(=O)[C@H](CCSC)NC(=O)CNC(=O)[C@@H](NC(=O)[C@H](C)NC(=O)[C@H](CCSC)NC(=O)[C@H](Cc1ccccc1)NC(=O)[C@@H](NC(=O)CNC(=O)[C@H](Cc1ccccc1)NC(=O)CNC(=O)CNC(=O)[C@H](CCCCN)NC(=O)[C@H](CCCCN)NC(=O)[C@H](CCSC)NC(=O)[C@H](CCSC)NC(=O)[C@H](CCCCN)NC(=O)[C@@H](N)CCCCN)[C@@H](C)O)[C@@H](C)CC)C(=O)N[C@@H](CCCNC(=N)N)C(=O)O [d66K] (H-KKMMKKGGFGTFMAIGMGIR-OH)", 4]
]}

Data origin: paper PMC8348110
